These data points were gathered from the EternaBench riboswitch data.

- Test system: MS2 coat protein
- assay: apparent Kd, MS2 coat protein; higher = weaker binding; RNA-MaP array; theophylline 2 mM where present
- conditions.used: ligand present: theophylline; designed as: OFF switch for theophylline
Each entry gets Criterion not met if its apparent Kd stays under 40 nM, and Criterion met if its apparent Kd is 40 nM or above.

// query Is reported apparent Kd greater than or equal to 40 nM here: UUUUUCGCGUUUGAUACCAGCAGAGUUGUUCUGGUCUGGUACAUGAGGAUCACCCAUGUCUGCCCUUGGCAGCAAACGGGAGAAG
// result Criterion not met

// query Dear colleague, could you confirm whether AUAGUCUAGAGUGAUACCAGACUACAUGAGGAUCACCCAUGUAUCUUUUGGUUAUCAUGUGUCCCUUGGCAGCACGCAUGUAUAG has apparent Kd at or above 40 nM?
// result Criterion not met

// query For this sequence, is measured apparent Kd 40 nM or higher? ACCUCACUCUCUGAUACCAGCUAACAACAUGAGGAUCACCCAUGUCAGACUUGUAUUGAUAGCCCUUGGCAGCAGAGGUAACUGC
// result Criterion not met

// query Decide: is the reported value of apparent Kd for AGCGAGAUCCGUGAUACCAGCUACAUGAGGAUCACCCAUGUGAGCGCGAAAGUGCUGUGUAGCCCUUGGCAGCACAGUGGAUCUC equal to or greater than 40 nM?
// result Criterion met

// query Is apparent Kd at least 40 nM? Consider AACAAUGCACAUGAGGAUCACCCAUGUGAUACCAGCCGCAACAUAGGCCCUUGGCAGCAUGUGGGUAUAGAACGAUUUGGCUGAA
// result Criterion met

// query Answer whether apparent Kd of UAUAUAUAUAUGGAUACCAGCAGAGAAAACGUUUAUCCUAACAUGAGGAUCACCCAUGUAUGCCCUUGGCAGCUGUGUAUAUAUA is greater than or equal to 40 nM.
// result Criterion not met

// query Form field: apparent Kd at least 40 nM? Entry: AAAUAAAUAACUGAUACCAGUGUACUGACAUGAGGAUCACCCAUGUUGGGUUUUGUUGUACACCCUUGGCAGCAGAAAUAUAAAA
// result Criterion met

// query Check this sequence for apparent Kd at or above 40 nM: UUUUUUAUUAUGGCGUAUCGGAAAACCGAUACCAGUACAGAAAUGUACCCUUGGCAGCGGCGUUUUACAUGAGGAUCACCCAUGU
// result Criterion not met

// query Has UAUAUAUAUAGGGAUACCAGCAGAGAAAACGUUUAUCCUAACAUGAGGAUCACCCAUGUAUGCCCUUGGCAGCUUUAUAUAUAUA a recorded apparent Kd greater than or equal to 40 nM?
// result Criterion not met

// query Has AGCGGAACGGAAGGGUCCCGAAAUUGUGAUACCAGCCUUGAAUCCGGCCCUUGGCAGCACAUGAGGAUCACCCAUGUACUGCGGU a recorded apparent Kd greater than or equal to 40 nM?
// result Criterion met

// query Does the reported apparent Kd for AGCGAUAUGCAUGAUACCAGCUACAUGAGGAUCACCCAUGUACGUCAGUAAUGACUGUGUAGCCCUUGGCAGCAUAGAGCAUGUA fall at or above the 40 nM mark?
// result Criterion not met

// query Answer whether apparent Kd of UUAUAUAUACAUGAGGAUCACCCAUGUGAUACCAGCCUGGAAACAGGCCCUUGGCAGCACAAAUACUCCAGAAAAUAUAAUAAAU is greater than or equal to 40 nM.
// result Criterion met

// query hey, is apparent Kd for this one >= 40 nM? AAACUGGGUGUAAAAUAAAUAAUCACUGAUACCAGACUAUGAGAUGUCCCUUGGCAGCAGAAACAUGAGGAUCACCCAUGUAAUA
// result Criterion not met

// query I'd appreciate it if you could say whether CAGAGCUACCGGGAUACCAGAAAUGGUAUUCCUUAAUUUCUUACAUGAGGAUCACCCAUGUUCCCUUGGCAGCUUGGUAGCUCUG has apparent Kd at least equal to 40 nM.
// result Criterion met
